Test system: HCV replicon in Huh7 cells
EXPERIMENTAL PROTOCOL: HCV replicon cell-based assay
Set-up: species or system HCV strain 1B
DETAILS: Hepatitis C virus, Huh-7, 96 h; HCV replicon, Huh7 cells, 4 days; activity ranges; read-out: EC50
pEC50: −log10 of the molar value.
Below, each of the compounds is paired with its reported pEC50 value.

Please review the entries below; each comes with its answer.
- COMPOUND: "C=CCC[C@](C)(NC(=O)[C@@H]1C[C@@H](Oc2cc(-c3ccccc3)nc3cc(OC)ccc23)CN1C(=O)C(NC(=O)OC(C)(C)C)C(C)(C)C)C(=O)NS(=O)(=O)c1cccc(C#N)c1 (some centres unmarked)"
  pEC50: "> 6.30"
- COMPOUND: "C=C1C[C@]1(NC(=O)[C@@H]1C[C@@H](Oc2cc(-c3ccccc3)nc3cc(OC)ccc23)CN1C(=O)C(NC(=O)OC(C)(C)C)C(C)(C)C)C(=O)NS(=O)(=O)c1ccccc1C(F)(F)F (some centres unmarked)"
  pEC50: "> 6.30"
- COMPOUND: "C=C[C@@H]1C[C@]1(NC(=O)C1CC(Oc2cc(-c3ccccc3)nc3cc(OC)ccc23)CN1C(=O)[C@@H](NC(=O)OCC)C(C)(C)C)C(=O)NS(=O)(=O)C1CC1 (some centres unmarked)"
  pEC50: "> 7.30"

pEC50 measured on C=CC1C[C@]1(NC(=O)[C@@H]1C[C@@H](Oc2cc(-c3ccccc3)nc3cc(OC)ccc23)CN1C(=O)C(NC(=O)OC(C)(C)C)C(C)(C)C)C(=O)NS(=O)(=O)c1ccc(NC(C)=O)cc1 (some centres unmarked) = > 6.30

pEC50 measured on C=C[C@@H]1C[C@]1(NC(=O)C1CC(Oc2cc(-c3ccccc3)nc3cc(OC)ccc23)CN1C(=O)[C@@H](NS(C)(=O)=O)C(C)(C)C)C(=O)NS(=O)(=O)C1CC1 (some centres unmarked) = > 6.30

====

STUDY SYSTEM: HCV NS3/4A protease complex (Hepatitis C virus genotype 1a, UniProt P27958, C1454S/C1711G)
Sequence (P27958 1027-1711, stated change not applied): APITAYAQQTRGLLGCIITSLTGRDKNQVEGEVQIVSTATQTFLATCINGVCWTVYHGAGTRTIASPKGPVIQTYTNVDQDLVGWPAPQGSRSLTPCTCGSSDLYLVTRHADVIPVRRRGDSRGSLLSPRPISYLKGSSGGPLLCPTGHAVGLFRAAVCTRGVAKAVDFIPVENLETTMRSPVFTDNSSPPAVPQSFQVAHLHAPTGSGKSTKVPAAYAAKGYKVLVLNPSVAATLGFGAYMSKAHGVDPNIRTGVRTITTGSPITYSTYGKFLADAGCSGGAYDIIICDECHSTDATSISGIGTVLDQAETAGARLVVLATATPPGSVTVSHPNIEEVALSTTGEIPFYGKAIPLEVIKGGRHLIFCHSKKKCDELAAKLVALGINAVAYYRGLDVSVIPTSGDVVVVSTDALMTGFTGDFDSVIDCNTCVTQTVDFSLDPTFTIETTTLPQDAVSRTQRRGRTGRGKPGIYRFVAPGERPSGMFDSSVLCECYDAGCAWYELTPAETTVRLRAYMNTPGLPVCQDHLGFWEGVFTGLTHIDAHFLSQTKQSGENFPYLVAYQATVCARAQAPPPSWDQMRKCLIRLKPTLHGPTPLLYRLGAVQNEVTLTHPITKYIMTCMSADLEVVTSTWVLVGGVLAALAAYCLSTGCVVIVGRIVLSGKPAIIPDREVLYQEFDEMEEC
Sequence (P27958 1027-1711, stated change not applied): as above
EXPERIMENTAL PROTOCOL: Recombinant HCV NS3/4A protease complex FRET peptide assay (strain not stated)
Type: biochemical
DETAILS: IC50, NS3/4A protease enzyme assay, strain not stated; activity ranges
Source text: The purpose of this in vitro assay was to measure the inhibition of HCV NS3 protease complexes, derived from the BMS, H77C or J416S strains, as described below, by compounds of the present invention. Serum from an HCV-infected patient was obtained from Dr. T. Wright, San Francisco Hospital. […]
QUANTITY: IC50

Please review the entries below; each comes with its answer.
- MOLECULE: "C=CC1C[C@]1(NC(=O)[C@@H]1C[C@@H](Oc2cc(-c3ccccc3)nc3cc(OC)ccc23)CN1C(=O)[C@@H](NC(=O)OC(C)(C)C)C(C)(C)C)C(=O)NS(=O)(=O)CCCC (some centres unmarked) [Compound 23]"
  STUDY SYSTEM: "HCV NS3/4A protease complex (Hepatitis C virus genotype 1a, UniProt P27958, C1454S/C1711G)"
  IC50: "< 50 nM"
- MOLECULE: "C=C[C@@H]1C[C@]1(NC(=O)C1C[C@@H](Oc2cc(-c3ccccc3)nc3cc(OC)ccc23)CN1C(=O)[C@@H](NC(=O)CF)C(C)(C)C)C(=O)NS(=O)(=O)C1CC1 (some centres unmarked) [Compound 112]"
  STUDY SYSTEM: "HCV NS3/4A protease complex (Hepatitis C virus genotype 1a, UniProt P27958, C1454S/C1711G)"
  IC50: "< 50 nM"
- MOLECULE: "C=CC1C[C@]1(NC(=O)[C@@H]1C[C@@H](Oc2cc(-c3ccccc3)nc3cc(OC)ccc23)CN1C(=O)[C@@H](NC(=O)OC(C)(C)C)C(C)(C)C)C(=O)NS(=O)(=O)C1CCCC1 (stereo in doubt) [Compound 12]"
  STUDY SYSTEM: "HCV NS3/4A protease complex (Hepatitis C virus genotype 1a, UniProt P27958, C1454S/C1711G)"
  IC50: "< 500 nM"
- MOLECULE: "C=CC1C[C@]1(NC(=O)[C@@H]1C[C@@H](Oc2cc(-c3ccccc3)nc3cc(OC)ccc23)CN1C(=O)[C@@H](NC(=O)OC(C)(C)C)C(C)(C)C)C(=O)NS(=O)(=O)c1ccc(-c2ccccc2)cc1 (some centres unmarked) [Compound 65]"
  STUDY SYSTEM: "HCV NS3/4A protease complex (Hepatitis C virus genotype 1a, UniProt P27958, C1454S/C1711G)"
  IC50: "< 500 nM"

Consider the additional molecule presented here.
IC50 measured on C=CC1C[C@]1(NC(=O)[C@@H]1C[C@@H](Oc2cc(-c3ccccc3)nc3cc(OC)ccc23)CN1C(=O)C(NC(=O)OC(C)(C)C)C(C)(C)C)C(=O)NS(=O)(=O)c1ccccc1C (some centres unmarked) [Compound 63] = < 50 nM

====

STUDY SYSTEM: HCV NS3/4A protease complex (Hepatitis C virus genotype 1a, UniProt P27958, C1454S/C1711G)
EXPERIMENTAL PROTOCOL: Recombinant HCV NS3/4A protease complex FRET peptide assay (strain not stated)
Assay type: biochemical
DETAILS: IC50, NS3/4A protease enzyme assay, strain not stated; activity ranges
Description: The purpose of this in vitro assay was to measure the inhibition of HCV NS3 protease complexes, derived from the BMS, H77C or J416S strains, as described below, by compounds of the present invention. Serum from an HCV-infected patient was obtained from Dr. T. Wright, San Francisco Hospital. […]
Below, each of the compounds is paired with its reported IC50 value.

Please review the entries below; each comes with its answer.
- COMPOUND: "C=C[C@@H]1C[C@]1(NC(=O)C1C[C@@H](Oc2cc(-c3ccccc3)nc3cc(OC)ccc23)CN1C(=O)[C@@H](NC(=O)COC(C)=O)C(C)(C)C)C(=O)NS(=O)(=O)C1CC1 (stereo partly drawn)"
  IC50: "< 50 nM"
- COMPOUND: "C=CC1C[C@]1(NC(=O)[C@@H]1C[C@@H](Oc2cc(-c3ccccc3)nc3cc(OC)ccc23)CN1C(=O)[C@@H](NC(=O)OC(C)(C)C)C(C)(C)C)C(=O)NS(=O)(=O)C1CC1 (stereo in doubt)"
  IC50: "< 50 nM"

IC50 measured on C=CC1CC1(NC(=O)[C@@H]1C[C@@H](Oc2cc(-c3ccccc3)nc3cc(OC)ccc23)CN1C(=O)[C@@H](NC(=O)OC(C)(C)C)C(C)(C)C)C(=O)NS(=O)(=O)C1CC1 (stereo partly drawn) = < 50 nM

====

Tested on: HCV replicon in Huh7 cells
EXPERIMENTAL PROTOCOL: HCV replicon cell-based assay
Set-up: species or system HCV strain 1B
DETAILS: Hepatitis C virus, Huh-7, 96 h; HCV replicon, Huh7 cells, 4 days; activity ranges; read-out: EC50
pEC50: −log10 of the molar value.
QUANTITY: pEC50

- COMPOUND: "C=CCOC(=O)N[C@H](C(=O)N1C[C@H](Oc2cc(-c3ccccc3)nc3cc(OC)ccc23)CC1C(=O)N[C@]1(C(=O)NS(=O)(=O)C2CC2)C[C@H]1C=C)C(C)(C)C (some centres unmarked) [Compound 126]"
  pEC50: "> 7.30"

Observed pEC50, HCV replicon in Huh7 cells, C=CC1C[C@]1(NC(=O)[C@@H]1C[C@@H](Oc2cc(-c3ccccc3)nc3cc(OC)ccc23)CN1C(=O)[C@@H](NC(=O)OC(C)(C)C)C(C)(C)C)C(=O)NS(=O)(=O)CC1CC1 (stereo in doubt) [Compound 16] : > 6.30

Observed pEC50, HCV replicon in Huh7 cells, C=CC1C[C@]1(NC(=O)[C@@H]1C[C@@H](Oc2cc(-c3ccccc3)nc3cc(OC)ccc23)CN1C(=O)[C@@H](NC(=O)O[C@H]1CCOC1)C(C)(C)C)C(=O)NS(=O)(=O)C1CC1 (some centres unmarked) [Compound 18] : > 7.30

Observed pEC50, HCV replicon in Huh7 cells, C=CC1C[C@]1(NC(=O)[C@@H]1C[C@@H](Oc2cc(-c3ccccc3)nc3cc(OC)ccc23)CN1C(=O)[C@@H](NC(=O)OC(C)(C)C)C(C)(C)C)C(=O)NS(=O)(=O)CCCC (some centres unmarked) [Compound 23] : > 6.30

Observed pEC50, HCV replicon in Huh7 cells, C=CC1C[C@]1(NC(=O)[C@@H]1C[C@@H](Oc2cc(-c3ccccc3)nc3cc(OC)ccc23)CN1C(=O)[C@@H](NC(=O)OC(C)(C)C)C(C)C)C(=O)NS(=O)(=O)C1CC1 (some centres unmarked) [Compound 31] : > 7.30

====

STUDY SYSTEM: HCV NS3/4A protease complex (Hepatitis C virus genotype 1a, UniProt P27958, C1454S/C1711G)
EXPERIMENTAL PROTOCOL: Recombinant HCV NS3/4A protease complex FRET peptide assay (strain not stated)
Type: biochemical
DETAILS: IC50, NS3/4A protease enzyme assay, strain not stated; activity ranges
QUANTITY: IC50

Please review the entries below; each comes with its answer.
- MOLECULE: "C=CC1C[C@]1(NC(=O)[C@@H]1C[C@@H](Oc2cc(-c3ccccc3)nc3cc(OC)ccc23)CN1C(=O)[C@@H](NC(=O)OC(C)(C)C)C(C)(C)C)C(=O)NS(=O)(=O)CCC (stereo partly shown) [Compound 26]"
  STUDY SYSTEM: "HCV NS3/4A protease complex (Hepatitis C virus genotype 1a, UniProt P27958, C1454S/C1711G)"
  OBSERVED RESULT: "< 50 nM"
- MOLECULE: "C=CC1CC1(NC(=O)[C@@H]1C[C@@H](Oc2cc(-c3ccccc3)nc3cc(OC)ccc23)CN1C(=O)[C@H](CC1CCCCC1)NC(=O)OC(C)(C)C)C(=O)NS(=O)(=O)C(F)(F)F (stereo partly shown) [Compound 81]"
  STUDY SYSTEM: "HCV NS3/4A protease complex (Hepatitis C virus genotype 1a, UniProt P27958, C1454S/C1711G)"
  OBSERVED RESULT: "< 5000 nM"
- MOLECULE: "C=CC1CC1(NC(=O)[C@@H]1C[C@@H](Oc2cc(-c3ccccc3)nc3cc(OC)ccc23)CN1C(=O)[C@@H](NC(=O)OC(C)(C)C)C(C)C)C(=O)NS(=O)(=O)C(F)(F)F (stereo partly shown) [Compound 85]"
  STUDY SYSTEM: "HCV NS3/4A protease complex (Hepatitis C virus genotype 1a, UniProt P27958, C1454S/C1711G)"
  OBSERVED RESULT: "< 500 nM"
- MOLECULE: "C=CC1CC1(NC(=O)[C@@H]1C[C@@H](Oc2cc(-c3ccccc3)nc3cc(OC)ccc23)CN1C(=O)[C@@H](NC(=O)OC(C)(C)C)C(C)(C)C)C(=O)NS(C)(=O)=O (stereo partly shown) [Compound 88]"
  STUDY SYSTEM: "HCV NS3/4A protease complex (Hepatitis C virus genotype 1a, UniProt P27958, C1454S/C1711G)"
  OBSERVED RESULT: "< 500 nM"
- MOLECULE: "C=CC1C[C@]1(NC(=O)[C@@H]1C[C@@H](Oc2cc(-c3ccccc3)nc3cc(OC)ccc23)CN1C(=O)[C@H](CC(C)C)NC(=O)OC(C)(C)C)C(=O)NS(=O)(=O)C1CC1 (stereo partly shown) [Compound 33]"
  STUDY SYSTEM: "HCV NS3/4A protease complex (Hepatitis C virus genotype 1a, UniProt P27958, C1454S/C1711G)"
  OBSERVED RESULT: "< 50 nM"
- MOLECULE: "C=C[C@@H]1C[C@]1(NC(=O)C1C[C@@H](Oc2cc(-c3ccccc3)nc3cc(OC)ccc23)CN1C(=O)[C@@H](NC(=O)CC1CC1)C(C)(C)C)C(=O)NS(=O)(=O)C1CC1 (stereo partly shown) [Compound 104]"
  STUDY SYSTEM: "HCV NS3/4A protease complex (Hepatitis C virus genotype 1a, UniProt P27958, C1454S/C1711G)"
  OBSERVED RESULT: "< 50 nM"
- MOLECULE: "C=C1C[C@]1(NC(=O)[C@@H]1C[C@@H](Oc2cc(-c3ccccc3)nc3cc(OC)ccc23)CN1C(=O)C(NC(=O)OC(C)(C)C)C(C)(C)C)C(=O)NS(=O)(=O)c1cccc(C(F)(F)F)c1 (stereo partly shown) [Compound 48]"
  STUDY SYSTEM: "HCV NS3/4A protease complex (Hepatitis C virus genotype 1a, UniProt P27958, C1454S/C1711G)"
  OBSERVED RESULT: "< 50 nM"
- MOLECULE: "C=C[C@@H]1C[C@]1(NC(=O)C1C[C@@H](Oc2cc(-c3ccccc3)nc3cc(OC)ccc23)CN1C(=O)[C@@H](NC(=O)OCC(C)(C)C)C(C)(C)C)C(=O)NS(=O)(=O)C1CC1 (stereo partly shown) [Compound 125]"
  STUDY SYSTEM: "HCV NS3/4A protease complex (Hepatitis C virus genotype 1a, UniProt P27958, C1454S/C1711G)"
  OBSERVED RESULT: "< 50 nM"
- MOLECULE: "C=CC1C[C@]1(NC(=O)[C@@H]1C[C@@H](Oc2cc(-c3ccccc3)nc3cc(OC)ccc23)CN1C(=O)[C@@H](NC(=O)N(CCC(F)(F)F)CC1CC1)C(C)(C)C)C(=O)NS(=O)(=O)C1CC1 (stereo in doubt) [Compound 20]"
  STUDY SYSTEM: "HCV NS3/4A protease complex (Hepatitis C virus genotype 1a, UniProt P27958, C1454S/C1711G)"
  OBSERVED RESULT: "< 50 nM"

IC50 measured on CCC1C[C@]1(NC(=O)[C@@H]1C[C@@H](Oc2cc(-c3ccccc3)nc3cc(OC)ccc23)CN1C(=O)[C@@H](NC(=O)OC1CCCC1)C(C)C)C(=O)NS(=O)(=O)C1CC1 (stereo partly shown) [Compound 6] = < 50 nM
